Hi there, I'd appreciate the recorded melting point for every entry that follows.

O=C(CN1C(C(=O)c2ccccc2)=C(O)c2ccccc2S1(=O)=O)Nc1ccc(Cl)cc1 [Compound 11c] :: 146 to 148 °C
O=C(CN1C(C(=O)c2ccccc2)=C(O)c2ccccc2S1(=O)=O)Nc1cccc(Cl)c1 [Compound 11b] :: 182 to 184 °C
Cc1cccc(NC(=O)CN2C(C(=O)c3ccccc3)=C(O)c3ccccc3S2(=O)=O)c1 [Compound 11e] :: 177 to 178 °C
O=C(CN1C(C(=O)c2ccccc2)=C(O)c2ccccc2S1(=O)=O)Nc1ccc(Br)cc1 [Compound 11k] :: 150 to 153 °C
O=C(CN1C(C(=O)c2ccc(Br)cc2)=C(O)c2ccccc2S1(=O)=O)Nc1ccccc1[N+](=O)[O-] [Compound 12g] :: 177 to 178 °C

Lab note: each molecule below needs its melting point filled in.
1. O=C(C1=C(O)c2ccccc2S(=O)(=O)N1)c1ccccc1 [Compound 9a]
2. COc1ccc(NC(=O)CN2C(C(=O)c3ccccc3)=C(O)c3ccccc3S2(=O)=O)cc1 [Compound 11m]
3. O=C(CN1C(C(=O)c2ccc(Br)cc2)=C(O)c2ccccc2S1(=O)=O)Nc1ccccc1Cl [Compound 12a]
4. Cc1ccccc1NC(=O)CN1C(C(=O)c2ccc(Br)cc2)=C(O)c2ccccc2S1(=O)=O [Compound 12d]
5. O=C(CN1C(C(=O)c2ccc(Br)cc2)=C(O)c2ccccc2S1(=O)=O)Nc1cccc([N+](=O)[O-])c1 [Compound 12h]

-- reply
1: 156 to 157 °C; 2: 164 to 165 °C; 3: 180 to 181 °C; 4: 193 to 194 °C; 5: 208 to 209 °C

# map each molecule to its melting point
1. O=C(CN1C(C(=O)c2ccc(Br)cc2)=C(O)c2ccccc2S1(=O)=O)Nc1cccc(Cl)c1 [Compound 12b]
2. COc1ccccc1NC(=O)CN1C(C(=O)c2ccc(Br)cc2)=C(O)c2ccccc2S1(=O)=O [Compound 12l]
3. Cc1ccc(NC(=O)CN2C(C(=O)c3ccccc3)=C(O)c3ccccc3S2(=O)=O)cc1 [Compound 11f]
4. O=C(CN1C(C(=O)c2ccccc2)=C(O)c2ccccc2S1(=O)=O)Nc1cccc(Br)c1 [Compound 11j]
5. O=C(CN1C(C(=O)c2ccccc2)=C(O)c2ccccc2S1(=O)=O)Nc1cccc([N+](=O)[O-])c1 [Compound 11h]
6. O=C(CN1C(C(=O)c2ccccc2)=C(O)c2ccccc2S1(=O)=O)Nc1ccccc1Cl [Compound 11a]

-- reply
1: 148 to 150 °C; 2: 186 to 187 °C; 3: 136 to 137 °C; 4: 163 to 166 °C; 5: 170 to 172 °C; 6: 141 to 142 °C

# return melting point for each item in the list
1. Cc1ccccc1NC(=O)CN1C(C(=O)c2ccccc2)=C(O)c2ccccc2S1(=O)=O [Compound 11d]
2. O=C(C1=C(O)c2ccccc2S(=O)(=O)N1)c1ccc(Br)cc1 [Compound 9b]
3. O=C(CN1C(C(=O)c2ccc(Br)cc2)=C(O)c2ccccc2S1(=O)=O)Nc1ccc([N+](=O)[O-])cc1 [Compound 12i]
4. O=C(CN1C(C(=O)c2ccc(Br)cc2)=C(O)c2ccccc2S1(=O)=O)Nc1cccc(Br)c1 [Compound 12j]
5. Cc1cccc(NC(=O)CN2C(C(=O)c3ccc(Br)cc3)=C(O)c3ccccc3S2(=O)=O)c1 [Compound 12e]
6. Cc1ccc(NC(=O)CN2C(C(=O)c3ccc(Br)cc3)=C(O)c3ccccc3S2(=O)=O)cc1 [Compound 12f]

-- reply
1. 165 to 167 °C
2. 144 to 146 °C
3. 210 to 212 °C
4. 145 to 147 °C
5. 143 to 144 °C
6. 190 to 192 °C

The reported value for O=C(CN1C(C(=O)c2ccc(Br)cc2)=C(O)c2ccccc2S1(=O)=O)Nc1ccc(Br)cc1 [Compound 12k] in terms of melting point is 200 to 203 °C
